- measurement.target: ECM
- protocol.description: ECM binding assay, ECL reaction
reported.metric: Luminescence
// return just the number, without any unit appended

Prompt: Looking for the measured Luminescence of bivalent IgG antibody 25H0021/20L0072 (antibody, V domains shown) VH: QVQLVESGGGVVQPGRSLRLSCAASGFTFSSLTMSWVRQAPGQGLEWMGTISSGGGRTYYPDSVKGRFTISRDNSKNTLYLQMNSLRAEDTAVYYCARGDYRYDGFAYWGQGTLVTVSS VL: DIQMTQSPSSLSASVGDRVTITCRASYNIDSYLAWYQQKPGKAPKLLIYASTLLVDGVPSRFSGSRSGTDFTLTISSLQPEDFATYYCQHYYSIPYTFGQGTKLEIK , can you help?
Completion: 32900

Prompt: Looking for the measured Luminescence of bivalent IgG antibody 25H0176/20L0072 (antibody, V domains shown) VH: QVQLVESGGGVVQPGRSLRLSCAASGFTFSSYTMSWVRQAPGQGLEWMGTISSKGGRTYYPDSVKGRFTISRDNSKNTLYLQMNSLRAEDTAVYYCARGDYRYDGFAYWGQGTLVTVSS VL: DIQMTQSPSSLSASVGDRVTITCRASYNIDSYLAWYQQKPGKAPKLLIYASTLLVDGVPSRFSGSRSGTDFTLTISSLQPEDFATYYCQHYYSIPYTFGQGTKLEIK , can you help?
Completion: 77000

Prompt: Looking for the measured Luminescence of bivalent IgG antibody 25H0562/20L0072 (antibody, V domains shown) VH: QVQLVESGGGVVQPGRSLRLSCAASGFTFSSYTMSWVRQAPGQGLEWMGTISSGGGRTYYPDSVKGRFTISRDNSKNTLYLQMNSLRAEDTAVYYCARGDYRYDGFAMWGQGTLVTVSS VL: DIQMTQSPSSLSASVGDRVTITCRASYNIDSYLAWYQQKPGKAPKLLIYASTLLVDGVPSRFSGSRSGTDFTLTISSLQPEDFATYYCQHYYSIPYTFGQGTKLEIK , can you help?
Completion: 32600

Prompt: Looking for the measured Luminescence of bivalent IgG antibody 25H0024/20L0072 (antibody, V domains shown) VH: QVQLVESGGGVVQPGRSLRLSCAASGFTFSSVTMSWVRQAPGQGLEWMGTISSGGGRTYYPDSVKGRFTISRDNSKNTLYLQMNSLRAEDTAVYYCARGDYRYDGFAYWGQGTLVTVSS VL: DIQMTQSPSSLSASVGDRVTITCRASYNIDSYLAWYQQKPGKAPKLLIYASTLLVDGVPSRFSGSRSGTDFTLTISSLQPEDFATYYCQHYYSIPYTFGQGTKLEIK , can you help?
Completion: 29600

Prompt: Looking for the measured Luminescence of bivalent IgG antibody 25H0322/20L0072 (antibody, V domains shown) VH: QVQLVESGGGVVQPGRSLRLSCAASGFTFSSYTMSWVRQAPGQGLEWMGTISSGGGRTYYPFSVKGRFTISRDNSKNTLYLQMNSLRAEDTAVYYCARGDYRYDGFAYWGQGTLVTVSS VL: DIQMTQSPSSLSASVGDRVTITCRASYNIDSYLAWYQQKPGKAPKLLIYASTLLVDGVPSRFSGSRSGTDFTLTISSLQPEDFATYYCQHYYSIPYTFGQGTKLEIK , can you help?
Completion: 70600

Prompt: Looking for the measured Luminescence of bivalent IgG antibody 25H0042/20L0072 (antibody, V domains shown) VH: QVQLVESGGGVVQPGRSLRLSCAASGFTFSSYVMSWVRQAPGQGLEWMGTISSGGGRTYYPDSVKGRFTISRDNSKNTLYLQMNSLRAEDTAVYYCARGDYRYDGFAYWGQGTLVTVSS VL: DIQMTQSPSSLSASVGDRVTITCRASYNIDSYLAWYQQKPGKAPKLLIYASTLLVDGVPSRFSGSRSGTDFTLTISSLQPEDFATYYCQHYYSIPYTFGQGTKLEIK , can you help?
Completion: 40400
